Each item that follows carries a reported viability, T/C.
tested on: 898857-211-R-J1-PDC complex spheroids, growth % test/control; test: Anticancer human tumor 898857-211-R-J1-PDC patient-derived melanoma cell line growth inhibition [RAS]; settings: second compound 10 µM; first compound 0.01 µM; active compounds read low

compound	tested system	viability, T/C
O=C(c1ccc(F)c(F)c1Nc1ccc(I)cc1F)N1CC(O)([C@@H]2CCCCN2)C1 + C#Cc1c(F)ccc2cc(O)cc(-c3ncc4c(N5CC6CCC(C5)N6)nc(OCC56CCCN5CC(F)C6)nc4c3F)c12	898857-211-R-J1-PDC complex spheroids, growth % test/control	14.3%
C=CC(=O)N1CCN(c2nc(OCC3CCCN3C)nc3c(F)c(-c4nc(N)cc(C)c4C(F)(F)F)c(Cl)cc23)C(C)C1 (stereo unspecified) + C#Cc1c(F)ccc2cc(O)cc(-c3ncc4c(N5CC6CCC(C5)N6)nc(OCC56CCCN5CC(F)C6)nc4c3F)c12	898857-211-R-J1-PDC complex spheroids, growth % test/control	39.5%
Nc1ccn(C2OC(CO)C(O)C2(F)F)c(=O)n1 (stereo unspecified) + C#Cc1c(F)ccc2cc(O)cc(-c3ncc4c(N5CC6CCC(C5)N6)nc(OCC56CCCN5CC(F)C6)nc4c3F)c12	898857-211-R-J1-PDC complex spheroids, growth % test/control	25.8%
CC(C)n1nc(-c2ccc3oc(N)nc3c2)c2c(N)ncnc21 + C#Cc1c(F)ccc2cc(O)cc(-c3ncc4c(N5CC6CCC(C5)N6)nc(OCC56CCCN5CC(F)C6)nc4c3F)c12	898857-211-R-J1-PDC complex spheroids, growth % test/control	29.9%
CCN1CCN(Cc2ccc(Nc3ncc(F)c(-c4cc(F)c5nc(C)n(C(C)C)c5c4)n3)nc2)CC1 + C#Cc1c(F)ccc2cc(O)cc(-c3ncc4c(N5CC6CCC(C5)N6)nc(OCC56CCCN5CC(F)C6)nc4c3F)c12	898857-211-R-J1-PDC complex spheroids, growth % test/control	45.8%
C=CC(=O)Nc1cc(Nc2nccc(-c3cn(C)c4ccccc34)n2)c(OC)cc1N(C)CCN(C)C + C#Cc1c(F)ccc2cc(O)cc(-c3ncc4c(N5CC6CCC(C5)N6)nc(OCC56CCCN5CC(F)C6)nc4c3F)c12	898857-211-R-J1-PDC complex spheroids, growth % test/control	48.1%

====

test system: 898857-211-R-J1-PDC complex spheroids, growth % test/control; experiment: Anticancer human tumor 898857-211-R-J1-PDC cell line growth inhibition [RAS]; conditions: second compound 0.01 µM; first compound 0.316 µM; active compounds read low;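 note: spheroids exposed to compound for seven days before readout; 100% = DMSO vehicle control wells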
Listing of recorded viability, T/C by entry.

compound	tested system	viability, T/C [%]
CCC(CC)c1cc(NC2CCC(N)C2)n2nccc2n1 (stereo not drawn) + C=CC(=O)N1CCN(c2nc(OCC3CCCN3C)nc3c(F)c(-c4nc(N)cc(C)c4C(F)(F)F)c(Cl)cc23)C(C)C1	898857-211-R-J1-PDC complex spheroids, growth % test/control	81.7
CC(C)NCC(C(=O)N1CCN(c2ncnc3c2C(C)CC3O)CC1)c1ccc(Cl)cc1 (stereo not drawn) + C=CC(=O)N1CCN(c2nc(OCC3CCCN3C)nc3c(F)c(-c4nc(N)cc(C)c4C(F)(F)F)c(Cl)cc23)C(C)C1	898857-211-R-J1-PDC complex spheroids, growth % test/control	104
NC1c2ccccc2OC12CCN(c1cnc3c(N4CCCc5ncccc54)n[nH]c3n1)CC2 (stereo not drawn) + C=CC(=O)N1CCN(c2nc(OCC3CCCN3C)nc3c(F)c(-c4nc(N)cc(C)c4C(F)(F)F)c(Cl)cc23)C(C)C1	898857-211-R-J1-PDC complex spheroids, growth % test/control	87.2

====

The reader will find reported viability, T/C values listed item by item below.
test system: 898857-211-R-J1-PDC complex spheroids, growth % test/control; assay: Anticancer human tumor 898857-211-R-J1-PDC cell line growth inhibition [RAS]; details: second compound 0.000949 µM; first compound 0.0316 µM; active compounds read low;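 note: spheroids exposed to compound for seven days before readout; 100% = DMSO vehicle control wells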

compound	viability, T/C
CCN1CCN(Cc2ccc(Nc3ncc(F)c(-c4cc(F)c5nc(C)n(C(C)C)c5c4)n3)nc2)CC1 + CCn1c(-c2cc(N3CCN(C)CC3)cnc2C(C)OC)c2c3cc(ccc31)-c1csc(n1)CC(NC(=O)C1CC1C)C(=O)N1CCCC(N1)C(=O)OCC(C)(C)C2	82.1%
CC(C)NCC(C(=O)N1CCN(c2ncnc3c2C(C)CC3O)CC1)c1ccc(Cl)cc1 (stereo not drawn) + CCn1c(-c2cc(N3CCN(C)CC3)cnc2C(C)OC)c2c3cc(ccc31)-c1csc(n1)CC(NC(=O)C1CC1C)C(=O)N1CCCC(N1)C(=O)OCC(C)(C)C2	105%
NC1c2ccccc2OC12CCN(c1cnc3c(N4CCCc5ncccc54)n[nH]c3n1)CC2 (stereo not drawn) + CCn1c(-c2cc(N3CCN(C)CC3)cnc2C(C)OC)c2c3cc(ccc31)-c1csc(n1)CC(NC(=O)C1CC1C)C(=O)N1CCCC(N1)C(=O)OCC(C)(C)C2	101%
CC(Nc1ccc2c(c1)OCCn1cc(N3C(=O)OCC3C(F)F)nc1-2)C(N)=O (stereo not drawn) + CCn1c(-c2cc(N3CCN(C)CC3)cnc2C(C)OC)c2c3cc(ccc31)-c1csc(n1)CC(NC(=O)C1CC1C)C(=O)N1CCCC(N1)C(=O)OCC(C)(C)C2	102%
CC(C)NCC(C(=O)N1CCN(c2ncnc3c2C(C)CC3O)CC1)c1ccc(Cl)cc1 (stereo not drawn) + CCn1c(-c2cccnc2C(C)OC)c2c3cc(ccc31)N1CCOC(CC(NC(=O)C(C(C)C)N(C)C(=O)C3(F)CCN(C(=O)C#CC(C)(C)N(C)C)CC3)C(=O)N3CCCC(N3)C(=O)OCC(C)(C)C2)C1	111%
CC(Nc1ccc2c(c1)OCCn1cc(N3C(=O)OCC3C(F)F)nc1-2)C(N)=O (stereo not drawn) + CCn1c(-c2cccnc2C(C)OC)c2c3cc(ccc31)N1CCOC(CC(NC(=O)C(C(C)C)N(C)C(=O)C3(F)CCN(C(=O)C#CC(C)(C)N(C)C)CC3)C(=O)N3CCCC(N3)C(=O)OCC(C)(C)C2)C1	110%
C=CC(=O)Nc1cc(Nc2nccc(-c3cn(C)c4ccccc34)n2)c(OC)cc1N(C)CCN(C)C + CCn1c(-c2cccnc2C(C)OC)c2c3cc(ccc31)N1CCOC(CC(NC(=O)C(C(C)C)N(C)C(=O)C3(F)CCN(C(=O)C#CC(C)(C)N(C)C)CC3)C(=O)N3CCCC(N3)C(=O)OCC(C)(C)C2)C1	107%
CCC(CC)c1cc(NC2CCC(N)C2)n2nccc2n1 (stereo not drawn) + CCn1c(-c2cccnc2C(C)OC)c2c3cc(ccc31)N1CCOC(CC(NC(=O)C(C(C)C)N(C)C(=O)C3(F)CCN(C(=O)C#CC(C)(C)N(C)C)CC3)C(=O)N3CCCC(N3)C(=O)OCC(C)(C)C2)C1	124%

====

test system: 898857-211-R-J1-PDC complex spheroids, growth % test/control; test: Anticancer human tumor 898857-211-R-J1-PDC cell line growth inhibition [RAS]; settings: second compound 1 µM; first compound 0.000949 µM; active compounds read low;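 note: spheroids exposed to compound for seven days before readout; 100% = DMSO vehicle control wells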

compound	unit info	viability, T/C
CCc1c2c(nc3ccc(O)cc13)-c1cc3c(c(=O)n1C2)COC(=O)[C@]3(O)CC + C=CC(=O)N1CCN(c2nc(OCC3CCCN3C)nc3c(F)c(-c4nc(N)cc(C)c4C(F)(F)F)c(Cl)cc23)C(C)C1	%	98
CC1(C)CCC(Nc2ncc(C(F)(F)F)c(-c3c[nH]c4c(P(C)(C)=O)c(C#N)ccc34)n2)CN1 (centres undefined) + C#Cc1c(F)ccc2cc(O)cc(-c3ncc4c(N5CC6CCC(C5)N6)nc(OCC56CCCN5CC(F)C6)nc4c3F)c12	%	86.7
CCc1c2c(nc3ccc(O)cc13)-c1cc3c(c(=O)n1C2)COC(=O)[C@]3(O)CC + C#Cc1c(F)ccc2cc(O)cc(-c3ncc4c(N5CC6CCC(C5)N6)nc(OCC56CCCN5CC(F)C6)nc4c3F)c12	%	86.7
CC1(C)CCC(Nc2ncc(C(F)(F)F)c(-c3c[nH]c4c(P(C)(C)=O)c(C#N)ccc34)n2)CN1 (centres undefined) + C=CC(=O)N1CCN(c2nc(OCC3CCCN3C)nc3c(F)c(-c4nc(N)cc(C)c4C(F)(F)F)c(Cl)cc23)C(C)C1	%	98.9

====

test system: 898857-211-R-J1-PDC complex spheroids, growth % test/control; assay: Anticancer human tumor 898857-211-R-J1-PDC cell line growth inhibition [RAS]; conditions: second compound 0.000949 µM; first compound 10 µM; active compounds read low;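 note: spheroids exposed to compound for seven days before readout; 100% = DMSO vehicle control wells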
measured attribute: viability, T/C (%)

compound	tested system	recorded number
CC(=O)OC12COC1CC(O)C1(C)C(=O)C(O)C3=C(C)C(OC(=O)C(O)C(NC(=O)OC(C)(C)C)c4ccccc4)CC(O)(C(OC(=O)c4ccccc4)C21)C3(C)C (centres undefined) + CCn1c(-c2cc(N3CCN(C)CC3)cnc2C(C)OC)c2c3cc(ccc31)-c1csc(n1)CC(NC(=O)C1CC1C)C(=O)N1CCCC(N1)C(=O)OCC(C)(C)C2	898857-211-R-J1-PDC complex spheroids, growth % test/control	14.7
CC(Nc1ccc2c(c1)OCCn1cc(N3C(=O)OCC3C(F)F)nc1-2)C(N)=O (centres undefined) + CCn1c(-c2cc(N3CCN(C)CC3)cnc2C(C)OC)c2c3cc(ccc31)-c1csc(n1)CC(NC(=O)C1CC1C)C(=O)N1CCCC(N1)C(=O)OCC(C)(C)C2	898857-211-R-J1-PDC complex spheroids, growth % test/control	53.2
C[C@@H](NC(=O)c1ncnc(N)c1Cl)c1ncc(C(=O)Nc2cc(C(F)(F)F)c(Cl)cn2)s1 + CCn1c(-c2cc(N3CCN(C)CC3)cnc2C(C)OC)c2c3cc(ccc31)-c1csc(n1)CC(NC(=O)C1CC1C)C(=O)N1CCCC(N1)C(=O)OCC(C)(C)C2	898857-211-R-J1-PDC complex spheroids, growth % test/control	20
CC(Nc1ccc2c(c1)OCCn1cc(N3C(=O)OCC3C(F)F)nc1-2)C(N)=O (centres undefined) + CCn1c(-c2cccnc2C(C)OC)c2c3cc(ccc31)N1CCOC(CC(NC(=O)C(C(C)C)N(C)C(=O)C3(F)CCN(C(=O)C#CC(C)(C)N(C)C)CC3)C(=O)N3CCCC(N3)C(=O)OCC(C)(C)C2)C1	898857-211-R-J1-PDC complex spheroids, growth % test/control	65.8

Sourced from PubChem BioAssay AID2060882
